Test: qHTS for Inhibitors of Plasmodium falciparum (GB4) proliferation (AID 504315); note: nearly all actives have a fitted effect of over 50% in size
Settings: P. falciparum GB4 in erythrocytes, SYBR Green DNA, 72 h; series mostly up to 6.7 µM
Results filed as inconclusive are left out. Activity calls are given as the source filed them. Calls come from the whole dose curve; as a rule, active = well fitted inhibition curve with a large enough effect; inconclusive = small, poorly fitted or top-dose-only effect, or effect the other way; inactive = flat fitted curve, though single readings scatter.
Valid outcomes are listed here; reply with one: class 1 for active, class 0 for inactive

Name the outcome recorded for COC(=O)C1=C(C(=O)OC)[C@@H]2N(C)c3ccccc3[C@@]23C[C@@H](CO)N(C(=O)c2ccc(Br)cc2)C3=N1 in the assay.
class 0

What is the recorded call for this compound in the test? O=c1n(-c2ccccc2)c(=O)n2n1CC[C@@H]1C(=NOC[C@@H](O)COCc3ccco3)[C@H]3O[C@H]3[C@@H](O)[C@H]12
class 0

Would you mind telling me which call this test gave COC(=O)C1=C(C)N(Cc2ccccc2)C(=NCCc2ccccn2)NC1c1cccc(C(F)(F)F)c1 (centres undefined) ?
class 1

Fill in: this test's call for CC(C)CON=C1C[C@@H](O)[C@@H](O)[C@@H]2[C@H]3C(=O)N(C[C@@H]4CCCO4)C(=O)[C@@H]3CC[C@@H]12 is ___
class 0

Tell me the recorded outcome of this test for COCCN1C(=O)NC(c2cccc(C(F)(F)F)c2)C(C(C)=O)=C1C (centres undefined) .
class 0

Test call for this compound, please: C=CC[C@@]1(c2ccc(OC)cc2)Oc2ccccc2C2=NCCN=C21
class 0

Called result for O[C@H](CC#CCOc1ccccc1)COCc1ccccc1
class 0

Query: recorded result category for N#Cc1ccc2c(c1)C[C@]1(CCCCN3C(=O)c4ccccc4C3=O)Oc3cc(-c4ccccc4)oc(=O)c3[C@H]2O1 in this test
class 0

How was CC(C)=CCn1cnc2c1C(NOCc1ccccc1)=NCN2 classified in this test?
class 0

====

Test system: HeLa
Test: Primary qHTS to identify gynecologic anti-cancer compounds using libraries of approved drugs and bioactive compounds (AID 1345084); note: nearly all actives have a fitted effect of over 55% in size
Conditions: Gynecologic cancer cell panel viability, ATPlite luminescence, 48 h; series mostly up to 57.5 µM
Records with an inconclusive call do not appear. Active and inactive are the calls of the source. Calls come from the whole dose curve; as a rule, active = well fitted cell-killing curve with a large enough effect; inconclusive = small, poorly fitted or top-dose-only effect, or effect the other way; inactive = flat fitted curve, though single readings scatter.
Please answer using one outcome listed in active, inactive

Any idea what this test logged for Clc1ccccc1CNCC1CCC(CNCc2ccccc2Cl)CC1 (centres undefined) ?
inactive

Hi team, can someone confirm the assay call for Cc1ccccc1C(=O)Nc1ccc(C(=O)N2CCC[C@@H](O)c3cc(Cl)ccc32)c(C)c1 ?
inactive

Name the outcome recorded for C=C1C(=O)O[C@@H]2C[C@@H](C)[C@]34C[C@]5(C(=O)O[C@H]6CC(C)=C([C@H](C)CCCO)[C@H](OC(=O)C(C)CC)[C@H]65)[C@@H](C(C)=C3C[C@@H]12)[C@H]4OC(C)=O (some centres undefined) in the assay.
inactive

In this assay, the call recorded for Cc1cc(N=Nc2ccc(S(=O)(=O)Nc3ccccn3)cc2)c(N)cc1O was what?
active

Give the logged outcome of this assay for the following molecule: CCN(CCCOc1ccc2c(Nc3cc(CC(=O)Nc4cccc(F)c4)[nH]n3)ncnc2c1)CCOP(=O)(O)O
inactive

Name the outcome recorded for COc1ccc(NC(=O)N2CCc3c2ccc2ccccc32)cc1N1CCN(C)CC1 in the assay.
inactive

Would you mind telling me which call this test gave OC(CNCCc1c[nH]c2ccccc12)Cn1c2ccccc2c2ccccc21 (centres undefined) ?
inactive

What did the test return for CC(=O)c1c(OCCN2CCCCC2)c(OCCC(C)c2ccc(F)cc2)c2oc(C)nc2c1C (centres undefined) ?
inactive

Tell me the assay call for CN(Cc1ccc(C(=O)O)cc1)c1ccc(OCc2c(-c3c(Cl)cccc3Cl)noc2C2CC2)nc1C(F)(F)F please.
inactive

====

Target: Pyruvate kinase (Leishmania mexicana)
Experiment: qHTS Validation Assay for Inhibitors of Leishmania Mexicana Pyruvate Kinase (AID 945)
Details: purified L. mexicana pyruvate kinase, enzyme activity, E451W mutant enzyme; series mostly up to 57.5 µM
The source made the active and inactive calls. Calls come from the whole dose curve; as a rule, active = well fitted inhibition curve with a large enough effect; inconclusive = small, poorly fitted or top-dose-only effect; inactive = no such curve, though single readings can be large or run the other way.
One label from this list, please: YES = active, NO = inactive

Please share the test call associated with CC(C)(C)c1ccc(S(=O)(=O)/C=C\C#N)cc1 .
NO

What is the recorded call for this compound in the test? COc1ccc(CCN(C)CCC[C@@](C#N)(c2ccc(OC)c(OC)c2)C(C)C)cc1OC
NO

Please share the test call associated with COc1ccc2c(c1)c(CC(=O)N1CCOCC1)c(C)n2C(=O)c1ccc(Cl)cc1 .
NO

Could you check what this test reported for CN(C)CCCCSC(=N)N ?
NO

Test call for this compound, please: Oc1cc2c(cc1O)[C@H](c1ccccc1)CNCC2
NO

// param item: COCCOC(=O)C1=C(C)NC(C)=C(C(=O)OC(C)C)[C@@H]1c1cccc([N+](=O)[O-])c1 ; yields the recorded call
NO

What did the test return for C[N+](C)(C)CCC(=O)c1cccc2ccccc12 ?
NO

Write down the call the test reported for this compound. Item: O=C1N=C(O)CN1/N=C\c1ccc(-c2ccc([N+](=O)[O-])cc2)o1
NO

Which outcome was entered for the compound NC[C@](O)(CS(=O)(=O)O)c1ccc(Cl)cc1 in this test?
NO

Called result for COc1[nH]c2ccc(F)cc2c1C(=O)OCC1CCN(CCNS(C)(=O)=O)CC1
NO

What is the recorded call for this compound in the test? CC(C)(C)NC[C@H](O)COc1cccc2[nH]c(=O)[nH]c12
NO

Per the records of this test, what outcome belongs to O=C1CC[C@H](N2C(=O)c3ccccc3C2=O)C(=O)N1 ?
NO

Give the logged outcome of this assay for the following compound: O=C(NCCNC[C@@H](O)COc1ccc(O)cc1)N1CCOCC1
NO

For NC(N)=NN=Cc1c(Cl)cccc1Cl , what call appears in the results of this test?
NO

What classification did COc1cc2c(cc1C(F)(F)F)N(C(=O)Nc1cc(F)cc(-c3cccnc3)c1)CC2 end up with in this test?
NO

Recorded call for CC(=O)N[C@@H](C(=O)O)C(C)(C)SN=O ?
NO

Identify the outcome logged in this assay for the compound shown: Cn1cnc2c(NC3CCCC3)ncnc21
NO

Short answer needed: outcome of this test for CN1CCN(CCC=C2c3ccccc3Sc3ccc(S(=O)(=O)N(C)C)cc32)CC1 ?
NO

How was CC(C)NC[C@H](O)c1ccc(NS(C)(=O)=O)cc1 classified in this test?
NO

Recorded test call requested for CC[N+](CC)(CC)CC
NO

Which result was noted for this compound in the test: N[C@H](C(=O)O)[C@@H]1C[C@@H]1C(=O)O
NO

What classification did Fc1ccc(C(c2ccc(F)cc2)N2CCN(C/C=C\c3ccccc3)CC2)cc1 end up with in this test?
NO

What outcome does the record of this test show for CCOC(=O)[C@@]12C[C@@H]1/C(=N/O)c1ccccc1O2 ?
NO

Query: recorded result category for C1CCC(N=C(NC23CC4CC(CC(C4)C2)C3)N2CCOCC2)CC1 in this test
NO

Outcome? N[C@H](CCC(=O)N[C@H](CSN=O)C(=O)NCC(=O)O)C(=O)O
NO

Any idea what this test logged for CSc1ccc2c(c1)[C@H](N1CCN(C)CC1)Cc1ccccc1S2 ?
NO

Each compound tested received a call. Report the one for CCCCOc1cc(C[C@@H]2CNC(=O)N2)ccc1OC .
NO

Can you look up the reported call for COC(=O)c1c(-c2cc(OC)c(OC)c(OC)c2)c2ccnc(OCc3ncccn3)c2c(=O)n1Cc1ccnc(C)c1 for me?
NO

Assay outcome for N[C@H](Cc1ccc(Cl)cc1)C(=O)O : what was it?
NO

# fetch the recorded call for COc1cccc(OC)c1OCCNC[C@@H]1COc2ccccc2O1 here
NO

Test call for this compound, please: Cc1cccc(C)c1NC(=O)C[N+](C)(C)C
NO

Give the logged outcome of this assay for the following compound: CC1=C(\C=C/C(C)=C/C=C\C(C)=C\C(=O)O)C(C)(C)CCC1
NO

Hi, do you know how CC(N)=NCCCC[C@H](N)C(=O)O came out in this test?
NO

Entry C[C@@H]1C[C@@H]2[C@H]3CCC4=CC(=O)C=C[C@]4(C)[C@]3(F)[C@@H](O)C[C@@]2(C)[C@@]1(O)C(=O)CO : call = ?
NO

// param item: N[C@]1(C(=O)O)CCc2cc(C(=O)O)ccc21 ; yields the recorded call
NO

Tell me the assay call for COc1cc2nc(N3CCN(C(=O)[C@H]4CCCO4)CC3)nc(N)c2cc1OC please.
NO

Any idea what this test logged for Nc1c(S(=O)(=O)O)cc(Nc2ccc(Nc3nc(Cl)nc(Nc4ccc(S(=O)(=O)O)cc4)n3)c(S(=O)(=O)O)c2)c2c1C(=O)c1ccccc1C2=O ?
NO

In this assay, the call recorded for CC[C@H](C)N(C)C(=O)c1cc2ccccc2c(-c2ccccc2Cl)n1 was what?
NO

Can you look up the reported call for C#C[C@]1(O)CC[C@H]2[C@H]3CCC4=Cc5oncc5C[C@]4(C)[C@@H]3CC[C@]21C for me?
NO

Just curious, what result did CCn1ccnc1C[C@@H]1COc2ccccc2O1 get here?
NO

Fill in: this test's call for CN(C)c1ccc(/C=C2/C(=O)Nc3ccccc32)cc1 is ___
YES

What was the test verdict on NCCNS(=O)(=O)c1cccc2cnccc12 ?
NO

// param item: O=C(O)[C@H]1CCCNC1 ; yields the recorded call
NO

Lab log entry: NS(=O)(=O)c1cc2c(cc1Cl)N[C@@H]([C@@H]1C[C@@H]3C=C[C@H]1C3)NS2(=O)=O — outcome as called in the assay?
NO

Look up the recorded call for O=C(OCCN1CCCCC1)c1c[nH]c2ccccc12 in this test.
NO

Dear colleague, could you share the recorded outcome for C[C@@H]1CCN=C(N)S1 when you have a moment?
NO
